Biological target: AchR (Homo sapiens)
Sequence (P02708 21-457): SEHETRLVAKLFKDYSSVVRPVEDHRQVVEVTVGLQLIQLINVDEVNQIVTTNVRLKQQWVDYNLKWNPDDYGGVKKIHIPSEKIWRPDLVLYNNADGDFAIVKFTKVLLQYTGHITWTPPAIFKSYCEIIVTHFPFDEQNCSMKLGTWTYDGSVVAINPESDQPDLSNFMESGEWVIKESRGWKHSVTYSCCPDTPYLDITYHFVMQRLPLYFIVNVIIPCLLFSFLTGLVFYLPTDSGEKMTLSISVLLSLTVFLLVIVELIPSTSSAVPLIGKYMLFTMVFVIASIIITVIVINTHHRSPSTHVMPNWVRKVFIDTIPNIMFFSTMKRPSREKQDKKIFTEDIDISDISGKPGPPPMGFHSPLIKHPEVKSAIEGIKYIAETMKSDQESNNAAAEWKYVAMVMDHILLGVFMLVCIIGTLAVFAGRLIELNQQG
Assay: ELISA of screened peptide phages on AchR versus streptavidin (OD450)
Format: binding
Settings: ELISA of selected 14-mer (L3) peptide phages on AchR, absorbance at 450 nm; Spep-2 positive control
Procedure: The output phages for the 4th and 5th rounds of biopanning in Example 13-1 were inoculated to E. coli, and plated on the agar plates so as to form 100-200 plaques per plate. […] In a 96-well ELISA plate, 5 μg/ml AchR or streptavidin was added at 50 μl per well, and left at 4° C. overnight. […] The measured absorbance was converted into a ratio of AchR absorbance to streptavidin absorbance (AchR signal/streptavidin signal), and the results are shown in FIGS. 14 to 16.
We label by threshold. Values of OD strictly beneath 0.7 are class 1. Values of 0.7 and up are class 0.

>>> print(df.to_string())
                                  substance  class_label
0  L3-58 (SLPKWRKGGDRVFT; AchR binding peptide) [Peptide L3-58]      class 1
1  L3-105 (YYEKIRRGEIKIAE; AchR binding peptide) [Peptide L3-105]      class 1

# next substance below
Is OD of L3-82 (HMCRSKRVAWKNLI; AchR binding peptide) [Peptide L3-82] strictly below 0.7?
class 0
